Molecular target: TgCet (RNA triphosphatase) (Toxoplasma gondii, UniProt S8F0G9)
Sequence (S8F0G9 1-920): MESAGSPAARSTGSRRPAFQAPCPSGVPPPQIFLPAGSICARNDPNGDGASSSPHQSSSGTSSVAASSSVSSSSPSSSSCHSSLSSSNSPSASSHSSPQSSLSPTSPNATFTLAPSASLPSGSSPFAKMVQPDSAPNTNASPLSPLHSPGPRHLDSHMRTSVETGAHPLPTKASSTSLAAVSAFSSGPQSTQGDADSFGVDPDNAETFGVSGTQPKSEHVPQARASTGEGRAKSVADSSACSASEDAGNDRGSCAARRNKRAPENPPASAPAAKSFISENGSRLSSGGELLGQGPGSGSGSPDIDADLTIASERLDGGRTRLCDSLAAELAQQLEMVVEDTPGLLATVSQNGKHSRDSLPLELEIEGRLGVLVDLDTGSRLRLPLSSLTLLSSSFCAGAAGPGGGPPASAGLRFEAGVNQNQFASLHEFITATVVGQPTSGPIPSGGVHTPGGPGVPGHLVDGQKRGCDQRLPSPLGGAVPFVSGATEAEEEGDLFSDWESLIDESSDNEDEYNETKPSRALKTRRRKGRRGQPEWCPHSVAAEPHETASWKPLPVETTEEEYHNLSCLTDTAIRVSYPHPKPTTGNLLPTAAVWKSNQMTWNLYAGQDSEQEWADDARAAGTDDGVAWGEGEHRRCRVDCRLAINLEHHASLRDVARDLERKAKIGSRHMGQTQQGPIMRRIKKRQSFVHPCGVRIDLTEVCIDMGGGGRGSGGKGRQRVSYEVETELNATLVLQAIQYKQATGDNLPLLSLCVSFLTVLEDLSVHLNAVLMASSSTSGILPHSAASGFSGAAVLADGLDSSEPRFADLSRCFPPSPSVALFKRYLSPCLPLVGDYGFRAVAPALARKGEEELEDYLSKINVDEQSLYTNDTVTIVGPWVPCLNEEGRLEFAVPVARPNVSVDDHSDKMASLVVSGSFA
Test: ATPase assay
assay endpoint: IC50 (nM)
Your answer is read as nM, so omit the unit and give the number.

Q: Param request: IC50 | system TgCet (RNA triphosphatase) (Toxoplasma gondii, UniProt S8F0G9) | item `O=c1c(O)c(-c2cc(O)c(O)c(O)c2)oc2cc(O)cc(O)c12`
A: 400
